Consider the following compounds; for each one, report its IC50.
# Target Entity: Phosphatidylinositol 4,5-bisphosphate 3-kinase catalytic subunit beta isoform (Homo sapiens)
# Sequence (P42338 whole entry, canonical isoform): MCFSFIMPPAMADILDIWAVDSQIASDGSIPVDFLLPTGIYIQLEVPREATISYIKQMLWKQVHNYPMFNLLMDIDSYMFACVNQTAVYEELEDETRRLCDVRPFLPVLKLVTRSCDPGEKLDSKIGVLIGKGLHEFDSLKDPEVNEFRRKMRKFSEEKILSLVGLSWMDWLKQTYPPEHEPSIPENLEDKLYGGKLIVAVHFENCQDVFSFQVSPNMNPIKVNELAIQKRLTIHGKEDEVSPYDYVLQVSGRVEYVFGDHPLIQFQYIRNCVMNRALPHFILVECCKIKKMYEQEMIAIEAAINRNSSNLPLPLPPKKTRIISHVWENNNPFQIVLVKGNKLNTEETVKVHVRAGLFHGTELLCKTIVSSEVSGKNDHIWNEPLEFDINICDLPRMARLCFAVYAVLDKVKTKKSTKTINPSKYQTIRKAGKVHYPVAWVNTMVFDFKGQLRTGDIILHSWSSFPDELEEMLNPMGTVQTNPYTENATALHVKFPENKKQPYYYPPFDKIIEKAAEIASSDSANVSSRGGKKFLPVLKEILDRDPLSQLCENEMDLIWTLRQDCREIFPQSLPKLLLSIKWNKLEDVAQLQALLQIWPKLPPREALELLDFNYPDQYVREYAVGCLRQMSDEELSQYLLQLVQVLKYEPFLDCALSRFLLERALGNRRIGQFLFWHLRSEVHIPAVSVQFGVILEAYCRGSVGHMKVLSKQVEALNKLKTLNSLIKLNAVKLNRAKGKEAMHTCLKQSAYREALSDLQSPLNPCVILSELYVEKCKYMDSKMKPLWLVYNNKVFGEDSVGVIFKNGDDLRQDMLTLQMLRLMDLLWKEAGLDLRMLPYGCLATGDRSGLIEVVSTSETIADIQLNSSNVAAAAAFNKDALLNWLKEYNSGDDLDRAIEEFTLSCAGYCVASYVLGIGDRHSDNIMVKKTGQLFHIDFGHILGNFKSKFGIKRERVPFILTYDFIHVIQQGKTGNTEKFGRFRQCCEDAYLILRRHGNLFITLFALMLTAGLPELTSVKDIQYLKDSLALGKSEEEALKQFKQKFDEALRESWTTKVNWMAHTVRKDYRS
# Method Description: Inhibition of PI3Kbeta (unknown origin)
Answers are plain numbers, in nM.

Sample records with IC50:
- Smiles String: "CCc1nc2ccccc2n1-c1nc(N2CCOCC2)c2sc(CN3CCN(C(=O)C4CC4)CC3=O)cc2n1"
  IC50 / nM: 137
- Smiles String: "C=CCN1CCN(Cc2cc3nc(-n4c(CC)nc5ccccc54)nc(N4CCOCC4)c3s2)C(=O)C1"
  IC50 / nM: 232

Proceed to the following item.
Can you look up the measured IC50 of "CCc1nc2ccccc2n1-c1nc(N2CCOCC2)c2sc(CN3CCN(C(=O)C4CCC4)CC3=O)cc2n1" for me?
165

###

# Target Entity: Phosphatidylinositol 4,5-bisphosphate 3-kinase catalytic subunit gamma isoform (Homo sapiens)
# Sequence (P48736 whole entry, canonical isoform): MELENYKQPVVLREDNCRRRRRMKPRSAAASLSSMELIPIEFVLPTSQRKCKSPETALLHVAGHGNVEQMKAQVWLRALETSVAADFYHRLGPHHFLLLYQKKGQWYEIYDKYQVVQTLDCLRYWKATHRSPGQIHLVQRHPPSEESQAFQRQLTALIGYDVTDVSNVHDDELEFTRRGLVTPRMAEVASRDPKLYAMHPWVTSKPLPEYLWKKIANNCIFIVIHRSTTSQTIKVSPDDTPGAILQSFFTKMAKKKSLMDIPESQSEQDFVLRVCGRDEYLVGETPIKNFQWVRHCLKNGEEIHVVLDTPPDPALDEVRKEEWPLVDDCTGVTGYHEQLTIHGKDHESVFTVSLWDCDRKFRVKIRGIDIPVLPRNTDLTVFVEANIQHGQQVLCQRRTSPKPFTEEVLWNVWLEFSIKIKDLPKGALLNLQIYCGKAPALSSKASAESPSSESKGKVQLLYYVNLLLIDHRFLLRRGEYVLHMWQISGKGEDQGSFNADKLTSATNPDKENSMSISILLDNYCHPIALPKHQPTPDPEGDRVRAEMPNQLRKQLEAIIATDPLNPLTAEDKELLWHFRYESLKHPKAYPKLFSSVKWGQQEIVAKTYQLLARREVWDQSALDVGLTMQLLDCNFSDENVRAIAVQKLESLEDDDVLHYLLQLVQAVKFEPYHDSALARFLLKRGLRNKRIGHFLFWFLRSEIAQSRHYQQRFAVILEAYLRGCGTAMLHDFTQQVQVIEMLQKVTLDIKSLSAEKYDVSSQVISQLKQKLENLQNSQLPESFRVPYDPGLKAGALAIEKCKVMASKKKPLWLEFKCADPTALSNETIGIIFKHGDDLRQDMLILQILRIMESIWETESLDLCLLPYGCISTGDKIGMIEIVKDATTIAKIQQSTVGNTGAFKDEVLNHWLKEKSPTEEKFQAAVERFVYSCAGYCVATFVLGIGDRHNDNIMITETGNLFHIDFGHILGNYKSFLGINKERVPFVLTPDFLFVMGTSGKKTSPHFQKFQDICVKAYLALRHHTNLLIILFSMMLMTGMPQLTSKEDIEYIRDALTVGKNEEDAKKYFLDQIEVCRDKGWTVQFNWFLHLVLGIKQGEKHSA
# Method Description: Inhibition of PI3Kgamma (unknown origin)
Consider the following compounds; for each one, report its pIC50.
Numbers only, as −log10 of the molar value.

- Smiles String: "CCc1nc2ccccc2n1-c1nc(N2CCOCC2)c2sc(CN3CCN(C(=O)C4CCC4)CC3=O)cc2n1"
  pIC50: 6.52
- Smiles String: "CCc1nc2ccccc2n1-c1nc(N2CCOCC2)c2sc(CN3CCN(C4CCCC4)CC3=O)cc2n1"
  pIC50: 6.43
- Smiles String: "C=CCN1CCN(Cc2cc3nc(-n4c(CC)nc5ccccc54)nc(N4CCOCC4)c3s2)C(=O)C1"
  pIC50: 6.58

Proceed to the following item.
Can you look up the measured pIC50 of "CCc1nc2ccccc2n1-c1nc(N2CCOCC2)c2sc(CN3CCN(C(=O)C4CC4)CC3=O)cc2n1" for me?
6.73

###

# Target Entity: Phosphatidylinositol 4,5-bisphosphate 3-kinase catalytic subunit delta isoform (Homo sapiens)
# Method Description: Inhibition of PI3Kdelta (unknown origin)
// NB: equality with 3 nM counts as Not fulfilled; only IC50 strictly below is Fulfilled

Lab note: confirm whether the reported IC50 for this compound is below 3 nM, equality not counting. compound: "CCc1nc2ccccc2n1-c1nc(N2CCOCC2)c2sc(CN3CCN(C4CCSCC4)CC3=O)cc2n1"
Not fulfilled

Lab note: confirm whether the reported IC50 for this compound is below 3 nM, equality not counting. compound: "CCc1nc2ccccc2n1-c1nc(N2CCOCC2)c2sc(CN3CCN(CC4CC4)C(=O)C3)cc2n1"
Fulfilled

Lab note: confirm whether the reported IC50 for this compound is below 3 nM, equality not counting. compound: "CCc1nc2ccccc2n1-c1nc(N2CCOCC2)c2sc(CN3CCN(C(=O)C4CC4)CC3=O)cc2n1"
Fulfilled

Lab note: confirm whether the reported IC50 for this compound is below 3 nM, equality not counting. compound: "CCc1nc2ccccc2n1-c1nc(N2CCOCC2)c2sc(CN3CCNC(=O)C3)cc2n1"
Not fulfilled

Lab note: confirm whether the reported IC50 for this compound is below 3 nM, equality not counting. compound: CCc1nc2ccccc2n1-c1nc(N2CCOCC2)c2sc(CN3CCN(C4CCC(N(C)C)CC4)CC3=O)cc2n1 (centres undefined)
Not fulfilled

Lab note: confirm whether the reported IC50 for this compound is below 3 nM, equality not counting. compound: "CCc1nc2ccccc2n1-c1nc(N2CCOCC2)c2sc(CN3CCN(C4CCC5(CC4)OCCO5)CC3=O)cc2n1"
Fulfilled

###

# Target Entity: Phosphatidylinositol 4,5-bisphosphate 3-kinase catalytic subunit delta isoform (Homo sapiens, UniProt O00329)
# Sequence (O00329 whole entry, canonical isoform): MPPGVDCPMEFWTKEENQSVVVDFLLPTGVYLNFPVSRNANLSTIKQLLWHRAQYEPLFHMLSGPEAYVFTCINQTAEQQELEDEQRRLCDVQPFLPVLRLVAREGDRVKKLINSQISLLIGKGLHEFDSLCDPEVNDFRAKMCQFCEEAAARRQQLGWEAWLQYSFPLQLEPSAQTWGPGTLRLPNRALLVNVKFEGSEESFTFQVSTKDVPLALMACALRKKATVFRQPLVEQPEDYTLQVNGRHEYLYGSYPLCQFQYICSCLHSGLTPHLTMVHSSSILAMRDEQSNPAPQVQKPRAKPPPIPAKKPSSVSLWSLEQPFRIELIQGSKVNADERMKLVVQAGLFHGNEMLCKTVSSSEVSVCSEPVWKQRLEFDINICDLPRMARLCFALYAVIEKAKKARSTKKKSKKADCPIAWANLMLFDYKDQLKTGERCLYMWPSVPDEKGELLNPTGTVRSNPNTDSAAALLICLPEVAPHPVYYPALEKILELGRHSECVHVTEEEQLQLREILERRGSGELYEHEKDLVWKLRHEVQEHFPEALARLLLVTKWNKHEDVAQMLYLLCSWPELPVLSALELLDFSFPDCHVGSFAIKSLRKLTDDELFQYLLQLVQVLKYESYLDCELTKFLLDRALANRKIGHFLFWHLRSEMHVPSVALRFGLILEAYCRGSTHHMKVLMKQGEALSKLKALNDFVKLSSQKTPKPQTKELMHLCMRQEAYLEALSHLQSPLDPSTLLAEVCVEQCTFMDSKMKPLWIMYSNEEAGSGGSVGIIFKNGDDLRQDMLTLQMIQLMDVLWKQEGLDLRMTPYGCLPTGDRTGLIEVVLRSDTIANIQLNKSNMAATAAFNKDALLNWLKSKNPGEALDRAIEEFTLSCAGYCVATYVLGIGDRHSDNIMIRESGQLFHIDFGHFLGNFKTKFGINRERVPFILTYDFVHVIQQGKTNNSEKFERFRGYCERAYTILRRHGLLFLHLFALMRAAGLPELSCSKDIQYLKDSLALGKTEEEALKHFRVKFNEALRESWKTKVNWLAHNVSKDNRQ
# Method Description: Inhibition of PI3Kdelta (unknown origin)
Consider the following molecules; for each one, report its IC50.

Sample records with IC50:
- Molecule: "CCc1nc2ccccc2n1-c1nc(N2CCOCC2)c2sc(CN3CCN(C(=O)C4CCCCC4)CC3=O)cc2n1"
  IC50: "7.9 nM"
- Molecule: "CCc1nc2ccccc2n1-c1nc(N2CCOCC2)c2sc(CN3CCN(C4CCN(C)CC4)CC3=O)cc2n1"
  IC50: "15 nM"
- Molecule: "CCc1nc2ccccc2n1-c1nc(N2CCOCC2)c2sc(CN3CCN(CC)C(=O)C3)cc2n1"
  IC50: "4.1 nM"

Okay, here is my list. What is IC50 for each of these?
1. CCCS(=O)(=O)N1CCN(Cc2cc3nc(-n4c(CC)nc5ccccc54)nc(N4CCOCC4)c3s2)C(=O)C1
2. CCc1nc2ccccc2n1-c1nc(N2CCOCC2)c2sc(CN3CCN(S(C)(=O)=O)CC3=O)cc2n1
3. CCc1nc2ccccc2n1-c1nc(N2CCOCC2)c2sc(CN3CCN(C(=O)C4CCC4)CC3=O)cc2n1
4. CCc1nc2ccccc2n1-c1nc(N2CCOCC2)c2sc(CN3CCN(C4CCC(O)CC4)C(=O)C3)cc2n1 (centres undefined)
5. CCc1nc2ccccc2n1-c1nc(N2CCOCC2)c2sc(CN3CCN(CC(=O)N4CCOCC4)C(=O)C3)cc2n1
6. CCc1nc2ccccc2n1-c1nc(N2CCOCC2)c2sc(CN3CCN(C4CCOCC4)CC3=O)cc2n1

3.5 nM
2.2 nM
1.4 nM
5.7 nM
15 nM
6.2 nM

###

# Organism: Homo sapiens
# Method Description: Selectivity index, ratio of IC50 for PI3Kalpha (unknown origin) to IC50 for PI3Kdelta (unknown origin)
Measure: Ratio IC50

Sample records with Ratio IC50:
- Smiles String: "CCc1nc2ccccc2n1-c1nc(N2CCOCC2)c2sc(CN3CCN(CC(N)=O)CC3=O)cc2n1"
  Ratio IC50: 25
- Smiles String: "C=CC(=O)N1CCN(Cc2cc3nc(-n4c(CC)nc5ccccc54)nc(N4CCOCC4)c3s2)C(=O)C1"
  Ratio IC50: 43

Can you look up the measured Ratio IC50 of "CCc1nc2ccccc2n1-c1nc(N2CCOCC2)c2sc(CN3CCN(S(=O)(=O)CC)CC3=O)cc2n1" for me?
10

###

# Species: Homo sapiens
# Method Description: Selectivity index, ratio of IC50 for PI3Kalpha (unknown origin) to IC50 for PI3Kdelta (unknown origin)
Consider the following compounds; for each one, report its Ratio IC50.
One number for each entry.

Okay, here is my list. What is Ratio IC50 for each of these?
1. CCc1nc2ccccc2n1-c1nc(N2CCOCC2)c2sc(CN3CCN(C(=O)OC(C)(C)C)CC3=O)cc2n1
2. CCc1nc2ccccc2n1-c1nc(N2CCOCC2)c2sc(CN3CCN(C)CC3=O)cc2n1
3. CCc1nc2ccccc2n1-c1nc(N2CCOCC2)c2sc(CN3CCN(C(=O)[C@H](C)O)CC3=O)cc2n1
4. CCc1nc2ccccc2n1-c1nc(N2CCOCC2)c2sc(CN3CCN(C4CCC(F)(F)CC4)CC3=O)cc2n1
5. CCc1nc2ccccc2n1-c1nc(N2CCOCC2)c2sc(CN3CCN(S(C)(=O)=O)CC3)cc2n1
6. CCc1nc2ccccc2n1-c1nc(N2CCOCC2)c2sc(CN3CCN(CC4CC4)C(=O)C3)cc2n1
7. CCc1nc2ccccc2n1-c1nc(N2CCOCC2)c2sc(CN3CCN(S(C)(=O)=O)CC3=O)cc2n1

1: 52; 2: 7.7; 3: 49; 4: 71; 5: 2.4; 6: 49; 7: 10

Okay, here is my list. What is Ratio IC50 for each of these?
1. CCc1nc2ccccc2n1-c1nc(N2CCOCC2)c2sc(CN3CCN(C4CCC(O)CC4)C(=O)C3)cc2n1 (centres undefined)
2. CCc1nc2ccccc2n1-c1nc(N2CCOCC2)c2sc(CN3CCN(C(=O)C4CCCC4)CC3=O)cc2n1
3. CCc1nc2ccccc2n1-c1nc(N2CCOCC2)c2sc(CN3CCN(C)C(=O)C3)cc2n1
4. CCc1nc2ccccc2n1-c1nc(N2CCOCC2)c2sc(CN3CCN(CC(=O)N4CCOCC4)C(=O)C3)cc2n1
5. CCc1nc2ccccc2n1-c1nc(N2CCOCC2)c2sc(CN3CCN(CC(N)=O)C(=O)C3)cc2n1
6. CCc1nc2ccccc2n1-c1nc(N2CCOCC2)c2sc(CN3CCNC(=O)C3)cc2n1
7. CCc1nc2ccccc2n1-c1nc(N2CCOCC2)c2sc(CN3CCN(c4cnn(C)c4)C(=O)C3)cc2n1
8. CCc1nc2ccccc2n1-c1nc(N2CCOCC2)c2sc(CN3CCN(CC)C(=O)C3)cc2n1

1: 7.7; 2: 95; 3: 53; 4: 11; 5: 7.1; 6: 13; 7: 24; 8: 10

Okay, here is my list. What is Ratio IC50 for each of these?
1. CCc1nc2ccccc2n1-c1nc(N2CCOCC2)c2sc(CN3CCN(c4cccnc4)C(=O)C3)cc2n1
2. CCc1nc2ccccc2n1-c1nc(N2CCOCC2)c2sc(CN3CCN(CC(F)(F)F)CC3=O)cc2n1
3. CCc1nc2ccccc2n1-c1nc(N2CCOCC2)c2sc(CN3CCN(C4CCC5(CC4)OCCO5)CC3=O)cc2n1
4. CCc1nc2ccccc2n1-c1nc(N2CCOCC2)c2sc(CN3CCN(S(=O)(=O)C4CC4)CC3=O)cc2n1
5. CCc1nc2ccccc2n1-c1nc(N2CCOCC2)c2sc(CN3CCN([C@H]4CC[C@H](O)CC4)C(=O)C3)cc2n1

1. 12
2. 32
3. 13
4. 38
5. 35

Okay, here is my list. What is Ratio IC50 for each of these?
1. CCc1nc2ccccc2n1-c1nc(N2CCOCC2)c2sc(CN3CCN(c4nccs4)C(=O)C3)cc2n1
2. CCc1nc2ccccc2n1-c1nc(N2CCOCC2)c2sc(CN3CCN(C4CCC(N(C)C)CC4)CC3=O)cc2n1 (centres undefined)
3. CCCS(=O)(=O)N1CCN(Cc2cc3nc(-n4c(CC)nc5ccccc54)nc(N4CCOCC4)c3s2)C(=O)C1
4. CCc1nc2ccccc2n1-c1nc(N2CCOCC2)c2sc(CN3CCN(C4CCCCC4)CC3=O)cc2n1
5. CCc1nc2ccccc2n1-c1nc(N2CCOCC2)c2sc(CN3CCN(C4CCOCC4)CC3=O)cc2n1
6. CCc1nc2ccccc2n1-c1nc(N2CCOCC2)c2sc(CN3CCN(C(=O)C4CCCCC4)CC3=O)cc2n1

7.7
36
4
21
61
43
